Taken from paper PMC6271771.

- TARGET ENTITY: CA XIII (Homo sapiens, UniProt Q8N1Q1)
- Construct: made in house
- Sequence (Q8N1Q1 whole entry): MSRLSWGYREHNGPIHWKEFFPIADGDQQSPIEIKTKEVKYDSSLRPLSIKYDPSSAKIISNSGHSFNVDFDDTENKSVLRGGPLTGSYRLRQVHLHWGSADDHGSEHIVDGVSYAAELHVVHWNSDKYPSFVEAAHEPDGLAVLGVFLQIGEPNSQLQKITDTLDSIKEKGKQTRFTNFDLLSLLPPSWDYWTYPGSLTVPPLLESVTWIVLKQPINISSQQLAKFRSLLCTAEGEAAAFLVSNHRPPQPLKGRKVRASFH
- EXPERIMENT DESCRIPTION: Fluorescent thermal shift assay (FTSA), CA XIII
- Type: binding
- STATED CONDITIONS: FTSA, pH 7.0, 37 °C; read-out: Compound Dissociation Constants Kd for CA XIII
RECORDED ENDPOINT: Kd (µM)
Write the answer as a number in µM, unit excluded.

> print(dat)
                                   molecule                           target.entity  unit.string  readout.number
1  NC(=S)NNC(=O)CCNc1ccc(S(N)(=O)=O)cc1 [Compound 9]  CA XIII (Homo sapiens, UniProt Q8N1Q1)           µM            76.9

Q. Look up and report measured Kd for this entry: Cc1cc(C)n(C(=O)CCNc2ccc(S(N)(=O)=O)cc2)n1 [Compound 18]
A. 4

Q. Look up and report measured Kd for this entry: COC(=O)CCNc1ccc(S(N)(=O)=O)cc1 [Compound 7]
A. 58.8

Q. Look up and report measured Kd for this entry: NS(=O)(=O)c1ccc(/N=N/N2CCOCC2)cc1 [Compound 29]
A. 0.222

Q. Look up and report measured Kd for this entry: NNC(=O)CCNc1ccc(S(N)(=O)=O)cc1 [Compound 8]
A. 76.9

* * *

Measured melting point values are reported for all entries that follow.

Sample answers from the record:
> print(dat)
                           smiles.structure           result
1  NS(=O)(=O)c1ccc(NCCC(=O)NN=Cc2ccc([N+](=O)[O-])cc2)cc1  227 to 228.5 °C
2  CC(=NNC(=O)CCNc1ccc(S(N)(=O)=O)cc1)c1ccccc1    185 to 186 °C
3  NS(=O)(=O)c1ccc(NCCc2n[nH]c(=S)n2-c2ccccc2)cc1    253 to 254 °C
4  NS(=O)(=O)c1ccc(NCCC(=O)NN=C(c2ccccc2)c2ccccc2)cc1    170 to 171 °C

# ---- query compound ----
Q. Look up and report measured melting point for this entry: "CC(C)=NNC(=O)CCNc1ccc(S(N)(=O)=O)cc1"
A. 216 to 217 °C

* * *

Measured pKd values are reported for all entries that follow.
- TARGET ENTITY: CA I (Homo sapiens)
- Construct: made in house
- EXPERIMENT DESCRIPTION: Fluorescent thermal shift assay (FTSA), CA I
- Type: binding
- STATED CONDITIONS: FTSA, pH 7.0, 37 °C; read-out: Compound Dissociation Constants Kd for CA I
// scale note: pKd = -log10(conc_M); give the bare number

Sample answers from the record:
> print(dat)
                 smiles.structure  readout.number
1   NS(=O)(=O)c1ccc(/N=N/SCCO)cc1            7.48
2   NCCS/N=N/c1ccc(S(N)(=O)=O)cc1            6.30
3  CN(C)/N=N/c1ccc(S(N)(=O)=O)cc1            7.00

# ---- query compound ----
Q. Look up and report measured pKd for this entry: "NS(=O)(=O)c1ccc(/N=N/N2CCCCC2)cc1"
A. 8.18

* * *

- TARGET ENTITY: CA II (Homo sapiens)
- Construct: made in house
- EXPERIMENT DESCRIPTION: Fluorescent thermal shift assay (FTSA), CA II
- Format: binding
- STATED CONDITIONS: pH 7.0, 37 °C, read-out: Compound Dissociation Constants Kd for CA II
RECORDED ENDPOINT: pKd
// scale note: pKd = -log10(conc_M); give the bare number

> print(dat)
                           smiles.structure  readout.number
1  CN(C)c1ccc(/C=N/NC(=O)CCNc2ccc(S(N)(=O)=O)cc2)cc1            5.08
2             NCCS/N=N/c1ccc(S(N)(=O)=O)cc1            6.56
3             NS(=O)(=O)c1ccc(NCCC(=O)O)cc1            4.90
4  NS(=O)(=O)c1ccc(NCCC(=O)N/N=C/c2ccc(Br)cc2)cc1            5.74
5            CN(C)/N=N/c1ccc(S(N)(=O)=O)cc1            6.74
6         NS(=O)(=O)c1ccc(/N=N/N2CCOCC2)cc1            7.00

Q. Look up and report measured pKd for this entry: "NS(=O)(=O)c1ccc(NCCC(=O)NN=Cc2ccc([N+](=O)[O-])cc2)cc1"
A. 5.44

Q. Look up and report measured pKd for this entry: "COC(=O)CCNc1ccc(S(N)(=O)=O)cc1"
A. 5.04

Q. Look up and report measured pKd for this entry: "NS(=O)(=O)c1ccc(NCCC(=O)NNC(=O)Nc2ccccc2)cc1"
A. 5.40

Q. Look up and report measured pKd for this entry: "NS(=O)(=O)c1ccc(NCCC(=O)NNC(=S)Nc2ccccc2)cc1"
A. 5.40

Q. Look up and report measured pKd for this entry: "NS(=O)(=O)c1ccc(NCCC(=O)NN=C(c2ccccc2)c2ccccc2)cc1"
A. 5.84

Q. Look up and report measured pKd for this entry: "CC(C)=NNC(=O)CCNc1ccc(S(N)(=O)=O)cc1"
A. 5.15

Q. Look up and report measured pKd for this entry: "Cc1ccc(C)n1NC(=O)CCNc1ccc(S(N)(=O)=O)cc1"
A. 5.70

* * *

- TARGET ENTITY: CA XII (Homo sapiens, UniProt O43570)
- Construct: made in house
- Sequence (O43570 30-289 limits assumed): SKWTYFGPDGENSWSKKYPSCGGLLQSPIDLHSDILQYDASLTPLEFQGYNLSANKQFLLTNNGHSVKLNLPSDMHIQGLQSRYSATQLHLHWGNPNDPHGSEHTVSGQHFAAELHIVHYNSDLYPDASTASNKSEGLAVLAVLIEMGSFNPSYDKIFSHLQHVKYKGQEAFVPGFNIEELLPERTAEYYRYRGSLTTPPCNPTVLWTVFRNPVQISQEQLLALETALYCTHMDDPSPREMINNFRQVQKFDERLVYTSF
- EXPERIMENT DESCRIPTION: Fluorescent thermal shift assay (FTSA), CA XII
- Assay type: binding
- STATED CONDITIONS: FTSA, pH 7.0, 37 °C; read-out: Compound Dissociation Constants Kd for CA XII
RECORDED ENDPOINT: Kd (µM)
Write the answer as a number in µM, unit excluded.

Sample answers from the record:
> print(dat)
                           smiles.structure                          target.entity  unit.string  readout.number
1  NS(=O)(=O)c1ccc(NCCC(=O)NNC(=S)Nc2ccccc2)cc1  CA XII (Homo sapiens, UniProt O43570)           µM            5.56
2  Cc1ccc(C)n1NC(=O)CCNc1ccc(S(N)(=O)=O)cc1  CA XII (Homo sapiens, UniProt O43570)           µM            28.6

# ---- query compound ----
Q. Fill: Kd (CA XII (Homo sapiens, UniProt O43570)) for this compound "NS(=O)(=O)c1ccc(NCCC(=O)NN=Cc2ccc([N+](=O)[O-])cc2)cc1"
A. 67

* * *

- TARGET ENTITY: CA XIII (Homo sapiens)
- Construct: made in house
- EXPERIMENT DESCRIPTION: Isothermal titration calorimetry (ITC), CA XIII
- Type: binding
- STATED CONDITIONS: ITC, pH 7.0, 37 °C; read-out: Kd for CA XIII by isothermal titration calorimetry (values in the brackets)
RECORDED ENDPOINT: Kd (nM)
Write the answer as a number in nM, unit excluded.

Q. Look up and report measured Kd for this entry: Cc1cc(C)n(C(=O)CCNc2ccc(S(N)(=O)=O)cc2)n1 [Compound 18]
A. 1000

* * *

- TARGET ENTITY: CA II (Homo sapiens)
- Construct: made in house
- EXPERIMENT DESCRIPTION: Fluorescent thermal shift assay (FTSA), CA II
- Format: binding
- STATED CONDITIONS: Compound Dissociation Constants Kd for CA II, pH 7.0, 37 °C
RECORDED ENDPOINT: Kd (nM)
Write the answer as a number in nM, unit excluded.

Q. Fill: Kd (CA II (Homo sapiens)) for this compound "NS(=O)(=O)c1ccc(/N=N/N2CCCCCC2)cc1"
A. 43.5

* * *

- TARGET ENTITY: CA I (Homo sapiens, UniProt P00915)
- Construct: made in house
- Sequence (P00915 whole entry): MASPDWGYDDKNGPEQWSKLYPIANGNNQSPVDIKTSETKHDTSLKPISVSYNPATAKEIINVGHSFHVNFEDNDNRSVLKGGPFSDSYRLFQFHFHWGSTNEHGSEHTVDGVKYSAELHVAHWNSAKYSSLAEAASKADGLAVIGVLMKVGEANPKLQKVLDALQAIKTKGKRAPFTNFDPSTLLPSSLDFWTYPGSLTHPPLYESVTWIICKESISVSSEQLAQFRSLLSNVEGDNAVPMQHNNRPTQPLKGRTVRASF
- EXPERIMENT DESCRIPTION: Fluorescent thermal shift assay (FTSA), CA I
- Assay type: binding
Measured pKd values are reported for all entries that follow.
// scale note: pKd = -log10(conc_M); give the bare number

> print(dat)
                 smiles.structure  recorded.endpoint  readout.number
1  COC(=O)CCNc1ccc(S(N)(=O)=O)cc1                pKd            4.45

# ---- query molecule ----
Q. Look up and report measured pKd for this entry: "NS(=O)(=O)c1ccc(/N=N/N2CCCCCC2)cc1"
A. 8.22

* * *

- TARGET ENTITY: CA VII (Homo sapiens, UniProt P43166)
- Construct: made in house
- Sequence (P43166 whole entry): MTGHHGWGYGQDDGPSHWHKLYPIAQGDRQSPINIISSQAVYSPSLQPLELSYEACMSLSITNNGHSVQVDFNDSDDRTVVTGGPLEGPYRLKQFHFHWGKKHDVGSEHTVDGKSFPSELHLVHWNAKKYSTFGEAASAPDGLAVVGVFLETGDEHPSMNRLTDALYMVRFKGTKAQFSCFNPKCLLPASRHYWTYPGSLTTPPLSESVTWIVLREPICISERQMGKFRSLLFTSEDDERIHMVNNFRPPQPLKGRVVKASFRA
- EXPERIMENT DESCRIPTION: Fluorescent thermal shift assay (FTSA), CA VII
- Format: binding
- STATED CONDITIONS: FTSA, pH 7.0, 37 °C; read-out: Compound Dissociation Constants Kd for CA VII
pKd: −log10 of the molar value.
# if value of pKd reaches 5, tag y; if it stays below, tag n

// known answers, use as guide
> print(dat)
                                   compound  label
1  NS(=O)(=O)c1ccc(NCCC(=O)N/N=C/c2ccc(Br)cc2)cc1 [Compound 14]      y
2  CN(C)/N=N/c1ccc(S(N)(=O)=O)cc1 [Compound 26]      y
3  NCCS/N=N/c1ccc(S(N)(=O)=O)cc1 [Compound 33]      y

Q. Assess whether reported pKd for Cc1cc(C)n(C(=O)CCNc2ccc(S(N)(=O)=O)cc2)n1 [Compound 18] sits at 5 or higher.
A. y

Q. Assess whether reported pKd for NS(=O)(=O)c1ccc(NCCC(=O)O)cc1 [Compound 3] sits at 5 or higher.
A. n

Q. Assess whether reported pKd for CN(C)c1ccc(/C=N/NC(=O)CCNc2ccc(S(N)(=O)=O)cc2)cc1 [Compound 16] sits at 5 or higher.
A. n

Q. Assess whether reported pKd for NC(=S)NNC(=O)CCNc1ccc(S(N)(=O)=O)cc1 [Compound 9] sits at 5 or higher.
A. n

Q. Assess whether reported pKd for Nc1nnc(CCNc2ccc(S(N)(=O)=O)cc2)s1 [Compound 10] sits at 5 or higher.
A. n
